target: HLA-A*26:01; test: IEDB peptide-MHC binding, purified MHC/competitive/fluorescence; filed as Kd, often an IC50 or EC50 that approximates it; bounds were set here for any values at or beyond the usual limits of such assays; conditions: source organism: Giardia lamblia ATCC 50803
Assay Endpoint: Kd

### Prompt Hello, I am looking for reported Kd with HLA-A*26:01 for ALGGSCHTT . Could you help?
### Response ≥ 20 µM

---

target: HLA-A*11:01; test: IEDB peptide-MHC binding, purified MHC/direct/fluorescence; filed as Kd, often an IC50 or EC50 that approximates it; bounds were set here for any values at or beyond the usual limits of such assays; details: source organism: Camelpox virus CMS
Assay Endpoint: pKd
Answers are plain numbers, as −log10 of the molar value.

### Prompt Need pKd, item LMYPTTLLK
### Response 8.66

Entry source: the Immune Epitope Database (IEDB)
